Every entry's value here was drawn from ChEMBL document CHEMBL3045577.

Experiment Notes: Cytotoxicity against Homo sapiens (human) MT4 cells by MTT assay
Format: cell-based
Field: CC50. Provide a value for each of the molecules that follow.

For this molecule ( "O=C(CSc1nnnn1-c1cccc2ccccc12)N/N=C/c1ccccc1Cl" ), measured CC50 is 69.7 µM

For this molecule ( "COc1ccc(/C=N/NC(=O)CSc2nnnn2-c2cccc3ccccc23)cc1" ), measured CC50 is > 299 µM

For this molecule ( "O=C(CSc1nnnn1-c1cccc2ccccc12)N/N=C/c1ccc(F)cc1" ), measured CC50 is > 308 µM

For this molecule ( "COc1cc(/C=N/NC(=O)CSc2nnnn2-c2cccc3ccccc23)ccc1O" ), measured CC50 is > 288 µM

For this molecule ( "O=C(CSc1nnnn1-c1cccc2ccccc12)N/N=C/c1cccs1" ), measured CC50 is > 317 µM

For this molecule ( "COc1cccc(/C=N/NC(=O)CSc2nnnn2-c2cccc3ccccc23)c1OC" ), measured CC50 is 192 µM

For this molecule ( "CC(C)Nc1cccnc1N1CCN(C(=O)c2cc3cc(NS(C)(=O)=O)ccc3[nH]2)CC1" ), measured CC50 is > 3.83 µM

For this molecule ( "O=C(CSc1nnnn1-c1cccc2ccccc12)N/N=C/c1ccc(O)cc1" ), measured CC50 is > 309 µM

For this molecule ( "CN(C)c1ccc(/C=N/NC(=O)CSc2nnnn2-c2cccc3ccccc23)cc1" ), measured CC50 is > 290 µM

For this molecule ( "O=C(CSc1nnnn1-c1cccc2ccccc12)N/N=C/c1cccc(O)c1" ), measured CC50 is 169 µM

For this molecule ( "COc1ccc(/C=N/NC(=O)CSc2nnnn2-c2cccc3ccccc23)c(OC)c1" ), measured CC50 is 28.3 µM

For this molecule ( "O=C(CSc1nnnn1-c1cccc2ccccc12)N/N=C/c1ccco1" ), measured CC50 is > 330 µM

For this molecule ( "COc1ccc(O)c(/C=N/NC(=O)CSc2nnnn2-c2cccc3ccccc23)c1" ), measured CC50 is 4.51 µM

For this molecule ( "O=C(CSc1nnnn1-c1cccc2ccccc12)N/N=C/c1ccc(Cl)cc1" ), measured CC50 is > 296 µM
